Taken from patent US20140088052A1.

# Tested on: Nrf2
# experimentalProtocol: Expression of Nrf2-regulated genes GCLM and NQO1 by qRT-PCR in Beas-2B cells (screen)
# Assay type: cell-based, human
# conditionNotes: Homo sapiens, BEAS-2B, 16 h, DMSO = 1.0 (Table 2), read-out: Relative Fold Change NQO1
# Method: To investigate the potency of the presently disclosed chalcone derivatives to activate Nrf2, the expression of antioxidant genes, GCLM and NADPH-NQO1, two well characterized transcriptional targets of Nrf2, were measured as surrogate markers. By “marker” is meant any protein or polynucleotide having an alteration in expression level or activity that is associated with a disease, disorder, or condition. […] RNA was isolated and gene expression was measured after 16 h. […]
testReadout: fold induction at 10 µM
Format: numeric value only, no unit, no commentary.

Lab note: need fold induction at 10 µM with Nrf2 for entry COc1ccc(C(=O)/C=C/c2ccccc2)cc1 [Compound 1d] , please look it up. 2.8

Lab note: need fold induction at 10 µM with Nrf2 for entry COc1ccc(OC)c(C(=O)/C=C/c2ccccc2C(F)(F)F)c1 [Compound 2g] , please look it up. 2.7

Lab note: need fold induction at 10 µM with Nrf2 for entry COc1ccc(C(=O)/C=C/c2ccc(C(F)(F)F)cc2)cc1 [Compound 4d] , please look it up. 4.6

Lab note: need fold induction at 10 µM with Nrf2 for entry COc1ccc(OC)c(C(=O)/C=C/c2cccc(C(F)(F)F)c2)c1 [Compound 3g] , please look it up. 0.8

Lab note: need fold induction at 10 µM with Nrf2 for entry COc1ccc(C(=O)/C=C/c2cccc(C(F)(F)F)c2)cc1 [Compound 3d] , please look it up. 2.8

Lab note: need fold induction at 10 µM with Nrf2 for entry COc1cc(OC)cc(C(=O)/C=C/c2ccccc2)c1 [Compound 1i] , please look it up. 2.4

Lab note: need fold induction at 10 µM with Nrf2 for entry COc1cccc(C(=O)/C=C/c2ccccc2C(F)(F)F)c1 [Compound 2c] , please look it up. 4.3

Lab note: need fold induction at 10 µM with Nrf2 for entry COc1ccc(C(=O)/C=C/c2ccccc2C(F)(F)F)cc1 [Compound 2d] , please look it up. 4.6

Lab note: need fold induction at 10 µM with Nrf2 for entry COc1cccc(OC)c1C(=O)/C=C/c1ccccc1[N+](=O)[O-] [Compound 5f] , please look it up. 3.7
